# Tested on: HCI-025 (organoid from a breast cancer xenograft)
# protocol_text: CTG-3D luminescence at 96 h relative to day-0 seeding control (ratio to day 0); higher = more growth / less cytotoxicity; PDxO 3D drug screen, 96 h, CTG-3D normalised to day-0 seeding control.
# measurement_conditions: 625 fM; days in culture: 172
The entries below come with measured CTG-3D luminescence at 96 h values attached.
Give the value as a plain number.

# example entries with known answers
{"compound": "C/C=C1\\NC(=O)[C@H]2CSSCC/C=C/[C@H](CC(=O)N[C@H](C(C)C)C(=O)N2)OC(=O)[C@H](C(C)C)NC1=O", "CTG-3D luminescence at 96 h": 1.48}
{"compound": "NC(=O)c1cccc2cn(-c3ccc([C@@H]4CCCNC4)cc3)nc12", "CTG-3D luminescence at 96 h": 2.26}
{"compound": "Nc1ccn([C@@H]2O[C@H](CO)[C@@H](O)C2(F)F)c(=O)n1", "CTG-3D luminescence at 96 h": 2.47}
{"compound": "NC1(C(=O)N[C@@H](CCO)c2ccc(Cl)cc2)CCN(c2nc[nH]c3nccc2-3)CC1", "CTG-3D luminescence at 96 h": 2.57}

Response field CTG-3D luminescence at 96 h (HCI-025) for item `CC1(C)CCC(c2ccc(Cl)cc2)=C(CN2CCN(c3ccc(C(=O)NS(=O)(=O)c4ccc(N[C@H](CCN5CCOCC5)CSc5ccccc5)c(S(=O)(=O)C(F)(F)F)c4)cc3)CC2)C1` : 2.63

Response field CTG-3D luminescence at 96 h (HCI-025) for item C[C@]12CC[C@@H]3c4ccc(O)cc4C[C@@H](CCCCCCCCC[S+]([O-])CCCC(F)(F)C(F)(F)F)[C@H]3[C@@H]1CC[C@@H]2O (stereo partly drawn) : 2.87

Response field CTG-3D luminescence at 96 h (HCI-025) for item CN(Cc1cnc2nc(N)nc(N)c2n1)c1ccc(C(=O)N[C@@H](CCC(=O)O)C(=O)O)cc1 [methotrexate] : 2.55

Response field CTG-3D luminescence at 96 h (HCI-025) for item `C=CC(=O)N1CCC[C@@H](n2nc(-c3ccc(Oc4ccccc4)cc3)c3c(N)ncnc32)C1` : 2.37
